Reference source for all entries: paper PMC12416549

- Assay Target: T1, TNFR1 (Homo sapiens, UniProt P19438)
- T1 chain: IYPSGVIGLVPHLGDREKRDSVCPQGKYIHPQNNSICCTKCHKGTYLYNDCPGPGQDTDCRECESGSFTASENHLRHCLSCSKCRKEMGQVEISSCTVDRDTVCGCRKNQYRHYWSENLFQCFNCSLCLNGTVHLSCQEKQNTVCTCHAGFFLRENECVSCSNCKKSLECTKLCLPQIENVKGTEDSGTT
- Test Method Notes: yeast display SC50
Measurement Label: apparent Kd (screen) (nM)

P. E54Q (designed binder) SMEEEVEKAAKEYEKKKKEAIEKHLEKLKAKDKEAAERFLKELEEAAKEYAKDQAKTMSEEEAKRRAKKYKEKVLLSELSEEEQKEIKEAEEKLVRTILKYVEEAAK
Q. A10L (designed binder) SMEEEVEKALKEYEKKKKEAIEKHLEKLKAKDKEAAERFLKELEEAAKEYAKDEAKTMSEEEAKRRAKKYKEKVLLSELSEEEQKEIKEAEEKLVRTILKYVEEAAK
For the pair P and Q , which entry has the numerically smaller recorded apparent Kd (screen)? Provide the label of your selected option as the answer.
Q
(Q: 0.956 nM, P: 10.4 nM)

1. L43S (designed binder) SMEEEVEKAAKEYEKKKKEAIEKHLEKLKAKDKEAAERFLKESEEAAKEYAKDEAKTMSEEEAKRRAKKYKEKVLLSELSEEEQKEIKEAEEKLVRTILKYVEEAAK
2. F39C (designed binder) SMEEEVEKAAKEYEKKKKEAIEKHLEKLKAKDKEAAERCLKELEEAAKEYAKDEAKTMSEEEAKRRAKKYKEKVLLSELSEEEQKEIKEAEEKLVRTILKYVEEAAK
// max by apparent Kd (screen) over [ 1 , 2 ] Select an item and report its label.
2
(2: 5.31 nM, 1: 0.49 nM)

P. E81N (designed binder) SMEEEVEKAAKEYEKKKKEAIEKHLEKLKAKDKEAAERFLKELEEAAKEYAKDEAKTMSEEEAKRRAKKYKEKVLLSELSNEEQKEIKEAEEKLVRTILKYVEEAAK
Q. V102E (designed binder) SMEEEVEKAAKEYEKKKKEAIEKHLEKLKAKDKEAAERFLKELEEAAKEYAKDEAKTMSEEEAKRRAKKYKEKVLLSELSEEEQKEIKEAEEKLVRTILKYEEEAAK
R. L76S (designed binder) SMEEEVEKAAKEYEKKKKEAIEKHLEKLKAKDKEAAERFLKELEEAAKEYAKDEAKTMSEEEAKRRAKKYKEKVLSSELSEEEQKEIKEAEEKLVRTILKYVEEAAK
rank_up(items): orders items by reported apparent Kd (screen) in ascending numerical order. Output the labels ranked as instructed.
P, Q, R

A. K23C (designed binder) SMEEEVEKAAKEYEKKKKEAIECHLEKLKAKDKEAAERFLKELEEAAKEYAKDEAKTMSEEEAKRRAKKYKEKVLLSELSEEEQKEIKEAEEKLVRTILKYVEEAAK
B. A106F (designed binder) SMEEEVEKAAKEYEKKKKEAIEKHLEKLKAKDKEAAERFLKELEEAAKEYAKDEAKTMSEEEAKRRAKKYKEKVLLSELSEEEQKEIKEAEEKLVRTILKYVEEAFK
C. K41A (designed binder) SMEEEVEKAAKEYEKKKKEAIEKHLEKLKAKDKEAAERFLAELEEAAKEYAKDEAKTMSEEEAKRRAKKYKEKVLLSELSEEEQKEIKEAEEKLVRTILKYVEEAAK
D. E14K (designed binder) SMEEEVEKAAKEYKKKKKEAIEKHLEKLKAKDKEAAERFLKELEEAAKEYAKDEAKTMSEEEAKRRAKKYKEKVLLSELSEEEQKEIKEAEEKLVRTILKYVEEAAK
Could you please sort these 4 entries by apparent Kd (screen) from high to low? Give the labels in the order specified.
B, D, C, A
(B: 13.8 nM, D: 3 nM, C: 0.869 nM, A: 0.49 nM)
